The reported numbers originate from paper PMC7784547.

Tested on: A/Puerto Rico/8/34 (H1N1) with the NA-H274Y mutation
Type: cell-based, influenza A virus
Conditions: read-out: IC50 ± SD, 274
property: IC50
Could you give the number and then its unit, please?

What value of measured IC50 is listed for C=Cc1c(C)c2cc3nc(c4c5[nH]c(cc6nc(cc1[nH]2)C(C)=C6CC)c(C)c5C(=O)C4)[C@@H](CCC(=O)O)[C@@H]3C [PPa, pyropheophorbide a, reference compound] ? 1050 nM
